TARGET OR SYSTEM: Multifunctional protein CAD (Mus musculus, UniProt B2RQC6)
Sequence (B2RQC6 whole entry): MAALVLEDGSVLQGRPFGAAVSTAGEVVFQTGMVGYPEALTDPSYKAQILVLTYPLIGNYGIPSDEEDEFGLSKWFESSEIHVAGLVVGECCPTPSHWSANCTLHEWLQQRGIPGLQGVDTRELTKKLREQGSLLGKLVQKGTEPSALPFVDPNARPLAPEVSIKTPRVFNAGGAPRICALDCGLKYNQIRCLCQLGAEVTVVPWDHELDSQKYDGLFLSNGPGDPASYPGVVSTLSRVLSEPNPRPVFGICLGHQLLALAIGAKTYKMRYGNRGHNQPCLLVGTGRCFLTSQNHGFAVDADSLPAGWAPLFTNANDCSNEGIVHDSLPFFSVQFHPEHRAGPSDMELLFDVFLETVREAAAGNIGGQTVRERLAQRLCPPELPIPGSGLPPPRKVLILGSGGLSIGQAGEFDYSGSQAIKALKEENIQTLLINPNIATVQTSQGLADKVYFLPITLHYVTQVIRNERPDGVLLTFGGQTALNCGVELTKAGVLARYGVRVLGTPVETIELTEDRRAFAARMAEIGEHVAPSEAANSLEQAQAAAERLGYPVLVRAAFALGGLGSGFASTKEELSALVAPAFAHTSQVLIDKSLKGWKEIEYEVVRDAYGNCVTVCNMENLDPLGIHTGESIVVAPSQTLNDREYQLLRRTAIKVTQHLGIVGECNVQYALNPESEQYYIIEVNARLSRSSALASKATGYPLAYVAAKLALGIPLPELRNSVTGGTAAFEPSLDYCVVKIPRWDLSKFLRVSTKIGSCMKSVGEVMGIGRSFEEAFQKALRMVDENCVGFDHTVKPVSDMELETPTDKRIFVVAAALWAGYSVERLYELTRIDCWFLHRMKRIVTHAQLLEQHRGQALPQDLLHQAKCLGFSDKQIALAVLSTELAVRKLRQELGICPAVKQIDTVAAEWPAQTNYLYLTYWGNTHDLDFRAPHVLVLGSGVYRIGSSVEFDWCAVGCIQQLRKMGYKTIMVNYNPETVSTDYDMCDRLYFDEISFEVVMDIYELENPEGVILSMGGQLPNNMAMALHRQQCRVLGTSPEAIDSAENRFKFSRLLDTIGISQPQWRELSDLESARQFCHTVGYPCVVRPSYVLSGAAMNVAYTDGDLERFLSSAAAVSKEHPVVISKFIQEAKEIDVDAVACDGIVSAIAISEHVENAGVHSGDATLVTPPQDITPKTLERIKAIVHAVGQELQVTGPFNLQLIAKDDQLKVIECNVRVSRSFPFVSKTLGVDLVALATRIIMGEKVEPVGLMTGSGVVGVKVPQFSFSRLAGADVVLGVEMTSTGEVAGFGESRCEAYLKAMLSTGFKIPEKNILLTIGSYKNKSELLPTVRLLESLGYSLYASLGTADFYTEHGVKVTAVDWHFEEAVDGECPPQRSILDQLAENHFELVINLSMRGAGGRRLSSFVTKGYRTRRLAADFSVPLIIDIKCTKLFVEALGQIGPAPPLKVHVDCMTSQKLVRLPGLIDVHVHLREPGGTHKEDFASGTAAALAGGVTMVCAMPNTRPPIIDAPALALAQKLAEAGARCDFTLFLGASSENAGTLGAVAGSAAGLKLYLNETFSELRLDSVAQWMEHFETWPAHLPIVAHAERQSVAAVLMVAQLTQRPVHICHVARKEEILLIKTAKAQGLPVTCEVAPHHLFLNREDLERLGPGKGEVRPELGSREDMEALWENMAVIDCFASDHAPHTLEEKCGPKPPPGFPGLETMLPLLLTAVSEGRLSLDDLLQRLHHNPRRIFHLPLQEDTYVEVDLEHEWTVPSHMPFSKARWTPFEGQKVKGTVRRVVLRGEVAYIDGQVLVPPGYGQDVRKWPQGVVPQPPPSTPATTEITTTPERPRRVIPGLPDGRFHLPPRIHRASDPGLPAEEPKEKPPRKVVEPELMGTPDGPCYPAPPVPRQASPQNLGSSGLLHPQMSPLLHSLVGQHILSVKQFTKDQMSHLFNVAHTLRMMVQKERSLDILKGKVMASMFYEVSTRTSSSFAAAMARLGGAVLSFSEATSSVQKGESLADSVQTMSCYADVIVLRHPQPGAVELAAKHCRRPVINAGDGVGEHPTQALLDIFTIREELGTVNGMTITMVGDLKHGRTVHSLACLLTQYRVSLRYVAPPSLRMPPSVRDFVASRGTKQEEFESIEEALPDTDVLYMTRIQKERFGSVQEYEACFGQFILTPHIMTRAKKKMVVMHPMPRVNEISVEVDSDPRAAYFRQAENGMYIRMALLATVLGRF
METHOD SUMMARY: Compound was evaluated for the inhibition of dihydroorotase enzyme from mouse Ehrlich ascites at the concentration of 10 uM and at pH 7.37
CONDITION NOTES: read-out: I50
pIC50: −log10 of the molar value.
ENDPOINT NAME: pIC50

[[record]]
molecule = "NC(=O)NC(CP(=O)(O)O)C(=O)O (stereo not given)"
modifier_sign = "<"
value_measured = 3.00

[[record]]
molecule = "C[S+]1([O-])=NC(=O)NC(C(=O)O)C1 (stereo not given)"
modifier_sign = "<"
value_measured = 3.00

[[record]]
molecule = "O=C1C[S+]([O-])CC(C(=O)O)N1 (stereo not given)"
modifier_sign = "="
value_measured = 3.74

[[record]]
molecule = "O=C1NC(C(=O)O)CS(=O)(=O)N1 (stereo not given)"
modifier_sign = "="
value_measured = 3.28

[[record]]
molecule = "O=C1CSCC(C(=O)O)N1 (stereo not given)"
modifier_sign = ">"
value_measured = 3.00

